Just for reference, the supplement of paper PMC6555819 is where these values come from.

- Tested on: PPARa:RXRa (NR concentration 270 nM, RXRa partner concentration 90 nM)
- Assay Comment: PBM binding z-score (relative to random genomic background probes); higher = stronger binding; sequences stand for … in GC…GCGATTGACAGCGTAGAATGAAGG
Lab note: compare PBM binding z-score against 2. Equal or greater, write 1. Smaller, write 0.

{"Sequence Chain": "GCTGCTAGGTCAACTGATAGTCAGCTAAAGCTCG", "Class": 1}
{"Sequence Chain": "CGTCCAAAGTCAAGGTCAGTGAAAGAGACTCGAA", "Class": 1}
{"Sequence Chain": "CCTGCTAGGTCAATGGTCAGCAAAAGCAGCTCGC", "Class": 1}
{"Sequence Chain": "CTCGAAAGGACGTGCTCAGGTGAGTATACCAAAC", "Class": 0}
{"Sequence Chain": "ATCGACAGGTCGACGAGGTGAGTATACACCGTTT", "Class": 0}

Given CCTATTAGTTGGCCATAAGGGCAACCGAAGCTCG , state whether its PBM binding z-score is at least 2. 0

Given TAGCCTAGGTCATGGGACAGTATACCACGCGAAC , state whether its PBM binding z-score is at least 2. 1

Given AGTCAAAGTTCATCTAGGTAACGTTAGATATGCT , state whether its PBM binding z-score is at least 2. 1

Given CAAGACAGGTGAGAAGGTAACTCAGCCTCGATTA , state whether its PBM binding z-score is at least 2. 0

Given GCGACTGGGGCTAAGCAGGTTACCATAAGGTTGG , state whether its PBM binding z-score is at least 2. 0

Given CGGCCAAGGTCATAGGAGGTCAGTGAAGACAGAT , state whether its PBM binding z-score is at least 2. 1

Given GCGACTGGGGCATCAGCAGGTTACCTTAACTTAA , state whether its PBM binding z-score is at least 2. 0

Given CAAACTAGGTCAAGAGGTCAAGGTCCGCTTCCCG , state whether its PBM binding z-score is at least 2. 1

* * *

- System: RXRa DBDmut IVT, anti-RXR (DBD mutation: RXRa K156A/R161A, NR concentration 90 nM)
- Assay Comment: PBM binding z-score (relative to random genomic background probes); higher = stronger binding; sequences stand for … in GC…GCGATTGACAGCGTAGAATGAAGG
Lab note: compare PBM binding z-score against 0.9. Equal or greater, write criterion met. Smaller, write criterion not met.

# example entries with known answers
{"Sequence Chain": "ATACCGAGGTGATCGTGAGGTCGTTGATACTAAC", "Assayed Target": "RXRa DBDmut IVT, anti-RXR (DBD mutation: RXRa K156A/R161A, NR concentration 90 nM)", "Class": "criterion not met"}
{"Sequence Chain": "TCTATTAGTTGATTAGTGCAACCGAAACAGCGGA", "Assayed Target": "RXRa DBDmut IVT, anti-RXR (DBD mutation: RXRa K156A/R161A, NR concentration 90 nM)", "Class": "criterion met"}
{"Sequence Chain": "AGAACGAGGGCAATGAGTTGAAAGCACGGGTGGC", "Assayed Target": "RXRa DBDmut IVT, anti-RXR (DBD mutation: RXRa K156A/R161A, NR concentration 90 nM)", "Class": "criterion met"}

Given ATCTCTAGGTAAAGATGGTTCAGTGAATGCAAAT , state whether its PBM binding z-score is at least 0.9. criterion not met

Given CCAGACAGGTGAAAGCTAACTCAGTCTGGTACGC , state whether its PBM binding z-score is at least 0.9. criterion not met

Given CCTAGTTGGTCAAGGACACACACGCTATAGGTAC , state whether its PBM binding z-score is at least 0.9. criterion not met
